Entry source: patent US20140303152A1

# Tested on: 293 cells
# Test: Cytotoxicity test (MTT method)
# Assay type: cell-based
# Condition Details: Homo sapiens, HEK293; 293 cells, MTT, 48 h; read-out: IC50
Give IC50 for every item shown.

Record summary for Fc1cc2c(=S)nc(Nc3ccc(Br)cn3)sc2c(F)c1F [Ia] : reported IC50 = > 500 µM

Record summary for O=[N+]([O-])c1cc(C(F)(F)F)cc2c(=S)nc(N3CCOCC3)sc12 [Ih] : reported IC50 = > 500 µM

Record summary for O=[N+]([O-])c1cc(C(F)(F)F)cc2c(=S)nc(N3CCC4(CC3)OCCO4)sc12 [Compound If] : reported IC50 = > 500 µM

* * *

# Test system: mycobacterium tuberculosis H37Rv
# Test: In vitro inhibition test on Mycobacterium tuberculosis (H37Rv)
# Type: cell-based
# Condition Details: Mycobacterium tuberculosis; H37Rv, generally observed 5-7 days after inoculation; read-out: MIC90
Give MIC90 for every item shown.
State just the number; it will be interpreted in µg/mL.

Record summary for O=[N+]([O-])c1cc(C(F)(F)F)cc2c(=S)nc(N3CCOCC3)sc12 [Ih] : reported MIC90 = 0.0312

Record summary for NNC(=O)c1ccncc1 [Isoniazide, reference compound] : reported MIC90 = 0.0625

Record summary for Fc1cc2c(=S)nc(Nc3ccc(Br)cn3)sc2c(F)c1F [Ia] : reported MIC90 = 8

Record summary for O=[N+]([O-])c1cc(C(F)(F)F)cc2c(=S)nc(N3CCC4(CC3)OCCO4)sc12 [Compound If] : reported MIC90 = 0.0312

* * *

Give MIC90 for every item shown.
# Tested on: mycobacterium tuberculosis H37Rv
# Test: In vitro inhibition test on Mycobacterium tuberculosis (H37Rv)
# Assay type: cell-based
# Condition Details: Mycobacterium tuberculosis, H37RV
State just the number; it will be interpreted in µg/mL.

Record summary for O=[N+]([O-])c1cc([N+](=O)[O-])c2sc(Nc3ccc(C(F)(F)F)cc3)nc(=S)c2c1 [Ib] : reported MIC90 = 4

Record summary for O=[N+]([O-])c1cc([N+](=O)[O-])c2sc(N3CCOCC3)nc(=S)c2c1 [Ig] : reported MIC90 = 0.0625

Record summary for O=[N+]([O-])c1cc([N+](=O)[O-])c2sc(N3CCCCC3)nc(=S)c2c1 [Ie] : reported MIC90 = 1

Record summary for CNc1nc(=S)c2cc([N+](=O)[O-])cc([N+](=O)[O-])c2s1 [Id] : reported MIC90 = 2

Record summary for CCNc1nc(=S)c2cc([N+](=O)[O-])cc([N+](=O)[O-])c2s1 [Ic] : reported MIC90 = 2
